Taken from paper PMC11694061.

Record form. Attribute: percent SOS1 degradation at 0.1 µM. Fill in for each entry.
# Test system: SOS1 in K562 cells (Homo sapiens, UniProt Q07889)
# Construct: endogenous in cells; host or cells: K562
# Sequence (Q07889 whole entry): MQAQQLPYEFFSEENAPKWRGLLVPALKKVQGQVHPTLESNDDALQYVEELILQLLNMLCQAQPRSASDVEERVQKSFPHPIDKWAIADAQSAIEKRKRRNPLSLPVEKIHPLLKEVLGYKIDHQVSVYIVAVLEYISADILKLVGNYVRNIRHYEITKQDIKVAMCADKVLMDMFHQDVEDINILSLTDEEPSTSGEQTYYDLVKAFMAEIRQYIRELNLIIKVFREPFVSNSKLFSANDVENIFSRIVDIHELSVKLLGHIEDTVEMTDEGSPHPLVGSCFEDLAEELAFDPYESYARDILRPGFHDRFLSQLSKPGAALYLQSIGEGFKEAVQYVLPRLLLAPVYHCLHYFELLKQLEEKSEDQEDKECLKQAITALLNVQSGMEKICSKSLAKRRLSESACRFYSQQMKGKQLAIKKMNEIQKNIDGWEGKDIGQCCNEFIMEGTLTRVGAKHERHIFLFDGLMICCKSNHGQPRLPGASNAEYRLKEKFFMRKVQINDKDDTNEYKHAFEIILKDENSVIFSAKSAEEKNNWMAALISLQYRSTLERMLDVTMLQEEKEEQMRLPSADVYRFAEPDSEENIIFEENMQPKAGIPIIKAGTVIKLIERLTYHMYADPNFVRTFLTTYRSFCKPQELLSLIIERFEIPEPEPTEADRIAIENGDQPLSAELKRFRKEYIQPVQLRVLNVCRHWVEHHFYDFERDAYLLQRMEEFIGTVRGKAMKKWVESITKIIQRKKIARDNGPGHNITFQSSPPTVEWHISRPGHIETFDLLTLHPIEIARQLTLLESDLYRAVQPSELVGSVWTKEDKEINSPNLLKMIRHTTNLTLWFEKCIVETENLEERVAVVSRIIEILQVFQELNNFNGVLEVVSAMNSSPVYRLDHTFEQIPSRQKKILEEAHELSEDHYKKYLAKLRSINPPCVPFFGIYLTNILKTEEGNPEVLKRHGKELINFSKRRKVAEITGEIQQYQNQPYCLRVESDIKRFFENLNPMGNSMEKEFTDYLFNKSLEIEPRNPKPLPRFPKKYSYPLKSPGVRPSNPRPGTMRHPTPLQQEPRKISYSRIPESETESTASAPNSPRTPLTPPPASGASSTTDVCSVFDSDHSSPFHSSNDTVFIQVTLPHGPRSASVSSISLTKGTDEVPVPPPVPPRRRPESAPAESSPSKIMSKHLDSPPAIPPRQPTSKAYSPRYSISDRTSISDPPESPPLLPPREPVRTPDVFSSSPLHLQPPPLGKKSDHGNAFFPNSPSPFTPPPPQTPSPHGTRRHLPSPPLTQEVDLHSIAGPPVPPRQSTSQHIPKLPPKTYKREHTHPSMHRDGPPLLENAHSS
# Protocol notes: SOS1 degradation in K562 cells (Western blot)
# Type: cell-based
# Applied conditions: 0.1 μM
Give bare numbers, in %.

Consider the reported percent SOS1 degradation at 0.1 µM for these compounds:
>  <Compound>
COc1cc2nc(C)nc(N[C@H](C)c3cc(N)cc(C(F)(F)F)c3)c2cc1OC1CCN(C(=O)CCCSc2cccc3c2CN(C2CCC(=O)NC2=O)C3=O)CC1 (stereo partly drawn) [SIAIS561133]

>  <Readout units>
%

>  <Endpoint result>
-26.7

$$$$
>  <Compound>
COc1cc2nc(C)nc(N[C@H](C)c3cc(N)cc(C(F)(F)F)c3)c2cc1OC1CCN(C(=O)CCCCCCCCCCSc2cccc3c2CN(C2CCC(=O)NC2=O)C3=O)CC1 (stereo partly drawn) [SIAIS561138]

>  <Readout units>
%

>  <Endpoint result>
-14.6

$$$$

Qu. Fill blank: measured percent SOS1 degradation at 0.1 µM of the compound COc1cc2nc(C)nc(N[C@H](C)c3cc(N)cc(C(F)(F)F)c3)c2cc1OC1CCN(C(=O)CCCCCCCSc2cccc3c2CN(C2CCC(=O)NC2=O)C3=O)CC1 (stereo partly drawn) [SIAIS561139] is ____.
Ans. -15.2
